System: A549
procedure summary: relative viability (normalised to negative control = 1, bortezomib = 0) (fraction); higher = less cytotoxic
protocol conditions: inflammatory serum-free RHB-A with cytokines + LPS; 5 d + 24 h CellTiter-Blue; compound 30 nM; GSK126 pretreatment: 5 uM GSK126

molecule: CC1(COc2ccc3c(c2)ncn3-c2ccc3cccc(N4CCC(N)CC4)c3n2)COC1
relative viability: 0.986
--
molecule: FC(F)(F)c1ccc(/C=C/c2nc(COc3ccc(CCCCn4ccnn4)cc3)co2)cc1 [Mubritinib (TAK 165)]
relative viability: 0.798
--
molecule: CCOc1cc2ncc(C#N)c(Nc3ccc(OCc4ccccn4)c(Cl)c3)c2cc1NC(=O)/C=C/CN(C)C [Neratinib]
relative viability: 0.713
--
molecule: CO[C@H]1C(=O)[C@]2(C)[C@@H](OC)C[C@H]3OC[C@@]3(OC(C)=O)[C@H]2[C@H](OC(=O)c2ccccc2)[C@]2(O)C[C@H](OC(=O)[C@H](O)[C@@H](NC(=O)OC(C)(C)C)c3ccccc3)C(C)=C1C2(C)C [Cabazitaxel]
relative viability: 0.487
